measurement target: STING HAQ-variant (Homo sapiens, UniProt Q86WV6, G230A/H232R/R293Q/R71H)
Construct: parental THP1-Blue™ ISG cell lines (which express endogenously HAQ)
Sequence (Q86WV6 whole entry R71H/G230A/H232R/R293Q): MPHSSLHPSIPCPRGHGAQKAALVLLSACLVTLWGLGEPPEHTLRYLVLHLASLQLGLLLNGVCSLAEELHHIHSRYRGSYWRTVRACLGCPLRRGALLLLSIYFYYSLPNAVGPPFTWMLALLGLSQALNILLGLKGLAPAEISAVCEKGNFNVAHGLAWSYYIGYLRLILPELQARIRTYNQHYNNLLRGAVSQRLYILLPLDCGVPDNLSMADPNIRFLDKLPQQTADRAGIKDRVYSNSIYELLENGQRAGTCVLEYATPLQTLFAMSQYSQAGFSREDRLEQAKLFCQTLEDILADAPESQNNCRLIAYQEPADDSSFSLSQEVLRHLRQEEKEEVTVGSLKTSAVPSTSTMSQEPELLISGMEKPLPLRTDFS
procedure details: IRF-inducible SEAP reporter assay in THP1-Blue ISG cells, STING HAQ-variant
assay setup: STING HAQ-variant (parental or re-introduced), 24 hours incubation
endpoint: EC50 (nM)
Only the number, expressed in nM, is required.

Take a look at these entries with their results.
>  <molecule>
Cc1cccc2c(-c3cccc4nn(C)cc34)nn(-c3ccc(NCc4cncnc4)nc3)c12

>  <measurement target>
STING HAQ-variant (Homo sapiens, UniProt Q86WV6, G230A/H232R/R293Q/R71H)

>  <EC50 (nM)>
2700

$$$$
>  <molecule>
Cc1cccc2c(-c3cccc4nn(C)cc34)nn(-c3ccc(N4CCC(c5nn[nH]n5)CC4)nc3)c12

>  <measurement target>
STING HAQ-variant (Homo sapiens, UniProt Q86WV6, G230A/H232R/R293Q/R71H)

>  <EC50 (nM)>
6500

$$$$
>  <molecule>
COc1cccc2c(-c3cccc4nn(C)cc34)nn(-c3ccc(N4CC5C(C4)C5C(=O)O)nc3)c12 (stereo not shown)

>  <measurement target>
STING HAQ-variant (Homo sapiens, UniProt Q86WV6, G230A/H232R/R293Q/R71H)

>  <EC50 (nM)>
800

$$$$

Q) Entry "Cc1cccc2c(-c3cccc4nn(C)cc34)nn(-c3ccc(N4CCn5cncc5C4)nc3)c12" has what EC50?
A) 1900

Q) Entry Cc1cccc2c(-c3cccc4nn(C)cc34)nn(-c3ccc(N4CC5C(C4)C5C(=O)O)nc3)c12 (stereo not shown) has what EC50?
A) 200

Q) Entry Cc1cc(C)c2c(c1)c(-c1cccc3nn(C)cc13)nn2-c1ccc(N2CC3C(C2)C3C(=O)O)nc1 (stereo not shown) has what EC50?
A) 1400

Q) Entry "Cc1cccc2c(-c3cccc4nn(C)cc34)nn(-c3ccc(N4CCC(NS(C)(=O)=O)CC4)nc3)c12" has what EC50?
A) 3000

All values here come from patent US12065427B2.
